# tested target: T1, RSV postfusion F (postF), subtype B (respiratory syncytial virus, subtype B)
# T1 construct: also called F ΔFP; Postfusion subtype B
# T1 sequence (P13843 26-109, chain 1 of 2): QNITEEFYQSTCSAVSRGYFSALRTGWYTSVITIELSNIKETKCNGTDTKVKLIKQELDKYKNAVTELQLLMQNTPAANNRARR
# T1 sequence (P13843 147-513, chain 2 of 2): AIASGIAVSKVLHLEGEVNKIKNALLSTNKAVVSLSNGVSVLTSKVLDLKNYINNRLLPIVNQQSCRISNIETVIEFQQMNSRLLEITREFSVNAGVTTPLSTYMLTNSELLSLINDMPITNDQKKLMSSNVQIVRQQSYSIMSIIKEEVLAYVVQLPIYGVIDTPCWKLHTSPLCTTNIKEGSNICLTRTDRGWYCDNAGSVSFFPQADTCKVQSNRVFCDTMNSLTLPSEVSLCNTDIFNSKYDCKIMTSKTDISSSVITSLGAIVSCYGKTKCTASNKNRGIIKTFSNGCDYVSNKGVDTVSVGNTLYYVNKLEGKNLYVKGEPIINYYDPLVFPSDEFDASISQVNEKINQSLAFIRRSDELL
# measurement notes: BLI, IgG
pKd: −log10 of the molar value.
Measured pKd by item
readout: pKd

# binder, readout, readout number
records = [
    ("ADI-14606 (antibody, V domains shown) VH: QVQLVQSGGGLVQPGGSLRLSCAASGFTVSSNYMGWVRQAPGKGLEWVSVIYTGGSTYYADSVKGRFTISRDNFKNTLYLQMNSLRAEDTALYYCARDLYSSGWFGYWGQGTLVTVSS VL: DIRLTQSPATLSVSPGERATLSCRASQSVSINLGWFQQKPGQSPRLLIYGTSTRATGIPARFSGSGSGTEFTLTISSLQSEDFAVYYCHQYNNWPYTFGQGTKVEIK", "pKd", 9.18),
    ("ADI-14421 (antibody, V domains shown, also called Ab 87) VH: QVQLVQSGAEVKKPGESLKISCKGSGYNSSINWIGYWIGWVRQMPGKGLEWMGIINPGDSDTRYSPSFQGQVTISVDKSISTAYLQWGSLKASDTAMYYCARRAYRSGWHFDLWGRGTLVTVSS VL: EIVMTQSPATLSVSPGERATLTCRASQSVSSNLAWYQQKPGQAPRLLIYGASTRATGIPARFSGSGSGTQFTLTISSLQSEDFAVYYCQHYNNWPPYTFGQGTKVEIK", "pKd", 9.13),
    ("ADI-21040 (antibody, V domains shown) VH: EVQLLESGPGLVKPSGTPSLTCAVSGVSITNSNNWWTWVRQPPGKGLEWIGEIYSSGSTNYSPSLKSRVTISLDKSKNQFSLKLSSVTAADTAVYYCARVLGYYGSGGGHLHSWGPGTLVTVSS VL: SYELTQPPSASGTPGQRVTISCSGSSSNIGAGYDVHWYQQLPGTAPKLLISVNSNRPSGVPDRFSGSKSGTSASLAITGLQAEDEANYYCQSYDNSLSGYVVFGGGTKLTVL", "pKd", 8.99),
    ("ADI-20975 (antibody, V domains shown) VH: QVQLVESGTHVKKPGASVKVSCEASDDTFNNKGIVWVRQAPGQGLEWMGWIRPNNGNTKYAQKFQGRVTMTTDASTNTAYMELRSLRSGDTAVYYCAREQFKWNDFYFDYWGQGILVTVSS VL: SYELMQPPSVSVAPGQTATITCGGSNIGSETVHWYQQKPGQAPVLVVHDDTDRPSGIPERFSGSNSGNTATLTISGVEAGDEADFYCQVRDSRTDDVVFGGGTKLTVL", "pKd", 9.89),
    ("ADI-21000 (antibody, V domains shown) VH: EVQLVESGPVLVKPRGTLTLTCTVSGFSLSDARMGVSWIRQPPGKALEWLAHIFWDDEKSYSTSLKNRLTISKDTSRGQVVLRMTNMDPVDTGTYFCARVNTYHSGGYYLYYFDVWGQGTLVTVSS VL: EIVLTQSPSSLSASVGDRVTITCRASQIIASYLNWYQQKPGQAPKLLIYAASSLQSGVPSRFSGSGSGTDFTLTISSLQPEDFATYYCQQSYSTRMYTFGQGTKVEIK", "pKd", 9.22),
]
